Hello, the source for this data is PubChem BioAssay (NCI), in case you need it.

In this section, each of the molecules is paired with its reported TGI.
tested on: NCI/ADR-RES ovarian; assay: NCI tumour cell line growth inhibition, 48 h

molecule=Cc1cc(C)c(-n2c(-c3ccc(Br)cc3)cs/c2=N\N=C2C=C(C(C)(C)C)C(=O)C(C(C)(C)C)=C2)c(C)c1 result="> 100 µM"

Inquiry: Param item = Cn1c2ccccc2c(=O)c2cccc(C(=O)NC(CCC(N)=O)C(=O)O)c21 (stereo not drawn) ; retrieve measured TGI.
Reply text: > 100 µM

Inquiry: Then what about the molecule `C=C(C)[C@@H]1CCC2=C[C@H](OC2=O)[C@@]2(C)C[C@@H]2C2=CC(C)=C(O2)[C@H]1O` ?
Reply text: > 75 µM
